- Test system: muMax20 (Max(13-93) K31hArg/K57hArg, M65Nle)
- PROTOCOL: PBM 8-mer E-score (E-score (rank enrichment, -0.5 to 0.5)); higher = stronger preferential binding
Whole data set: some 33,000 sequences, median “E-score (rank enrichment, -0.5 to 0.5)” near -0.0068, cut for the highest 2% near 0.24. The full list was thinned out, with the highest values kept by preference.

| SEQUENCE_CHAIN | PBM 8-mer E-score |
| --- | --- |
| ATACAGTC | 0.0784 |
| AATAATAT | 0.244 |
| CTGATATA | 0.0184 |
| GCACTTGA | -0.0604 |
| CAGATGTA | 0.138 |
| ATGCGCAC | -0.00186 |
| AATAATAC | 0.16 |
| CAGATATA | 0.0469 |
| GATTATAA | 0.242 |
| AGGGGTAG | 0.123 |
| GAATAACC | 0.0359 |
| GTTTCAAA | 0.162 |
| ATCGGTGC | -0.0954 |
| ATGTTTAG | 0.222 |
| ACTATATA | 0.235 |
| GCCCCAAC | 0.167 |
| CAAACAAA | 0.185 |
| ACGTGCCG | 0.207 |
| GATGTGTA | 0.17 |
| CATAATAG | 0.229 |
| AAAGTAGA | 0.0577 |
| GATAGAGC | -0.15 |
| GAAACATA | 0.249 |
| CTGACTAC | -0.0404 |
| CAATTCAA | 0.0283 |
| CTTAGACC | -0.135 |
| CATGTGTC | 0.117 |
| ATTGAGAC | -0.0808 |
| CTGTGGTA | 0.0865 |
| CGGATGCC | -0.075 |
| CTTTCAAC | 0.0143 |
| ACGTGACC | 0.302 |
| TCCAGCAA | 0.0563 |
| GCATGATA | 0.249 |
| CCGTGACA | 0.0799 |
| ATTGTAAA | 0.244 |
| AATTGGGC | 0.0726 |
| GCTTGCAC | -0.252 |
| ATGTTTAC | 0.245 |
| AATTGCTC | -0.0189 |
| GATAATAC | 0.204 |
| TGTAATAA | 0.189 |
| AAGATACT | 0.117 |
| TCCACGCA | 0.0588 |
| ATATGATA | 0.273 |
| CCGTCCCA | 0.0086 |
| GTATGAGA | 0.161 |
| CATTATAA | 0.0818 |
| ATACAGTG | 0.24 |
| ATTTCAAG | 0.104 |
| ATTGATCG | 0.103 |
| CTATCTAA | 0.0704 |
| AGGGTTTC | -0.0163 |
| CCGTGACG | -0.149 |
| CCTCCTAC | -0.0317 |
| GGTTATAA | 0.145 |
| CTTTGATC | -0.0961 |
| TCAAGGGA | -0.065 |
| ATAAGGCC | -0.0432 |
| AAGATATC | 0.155 |
| GTCTCTGA | -0.161 |
| GAAACAAC | 0.00284 |
| AATTGGGA | 0.239 |
| GCAGATGA | 0.0628 |
| ATAGCGTG | 0.161 |
| TCTTATAA | 0.115 |
| CATGTGTA | 0.332 |
| ATCGTACA | 0.159 |
| ATGCGCAT | 0.295 |
| AGATAGAG | -0.0243 |
| AATTGGGT | 0.181 |
| ACGTGACA | 0.312 |
| CAGTCACC | -0.064 |
| ATATGATG | 0.193 |
| CAGAGCTA | -0.25 |
| TGTTAAAA | 0.154 |
| AAGATATA | 0.26 |
| ACTAATAT | 0.199 |
| ACGAGCAG | -0.0192 |
| AGGTTTAG | -0.0204 |
| ACTTCCTC | 0.052 |
| AGGACCGC | 0.0155 |
| ACTAATAG | 0.191 |
| AATAAGGG | 0.11 |
| TATTATAA | 0.28 |
| GTCGTACA | 0.242 |
| ATGCTCAA | 0.0249 |
| CCTATATC | -0.0516 |
| ATTTCAAA | 0.252 |
| GTAAGGCA | 0.203 |
| ATTGGATA | -0.0183 |
